Target: T1, PUF4 RNA-binding domain (Saccharomyces cerevisiae, UniProt P25339 537-888)
T1 sequence: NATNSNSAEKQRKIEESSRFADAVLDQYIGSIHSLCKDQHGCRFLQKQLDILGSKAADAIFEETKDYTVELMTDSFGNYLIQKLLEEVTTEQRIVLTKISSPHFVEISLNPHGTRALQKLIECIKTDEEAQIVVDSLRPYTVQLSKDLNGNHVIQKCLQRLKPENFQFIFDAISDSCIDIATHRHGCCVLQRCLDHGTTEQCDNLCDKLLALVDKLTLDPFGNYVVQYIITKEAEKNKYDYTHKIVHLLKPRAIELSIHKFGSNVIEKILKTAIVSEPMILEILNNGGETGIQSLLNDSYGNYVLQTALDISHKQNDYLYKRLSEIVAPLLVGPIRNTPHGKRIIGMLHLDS
Assay: Mg; RNA-MaP; 20 mM Na-HEPES pH 7.4, 30 mM KOAc, 0.75 mM MgCl2, 0.1% Tween-20, 5% glycerol, 0.1 mg/mL BSA, 2 mM DTT; 25 C; 0.0125-409.6 nM protein
Settings: tags: N-His6-TEV cleaved; C-SNAP kept, Cy3B-labelled; label: tethered on chip by stalled RNA polymerase
pKd: −log10 of the molar value.

[
  {
    "BINDER": "UCUCUUUCUUGUAUUAUUAUCUCUU (ssRNA) [Ie_S1_P5E.1_K5.1_C5.1_H5.1_[+1CTT]_A5.1_F5.1_T5.1]",
    "pKd": 8.36
  },
  {
    "BINDER": "Ic_S2_P4E.1_K4.1_C4.1_H4.1_A4.1_[T5C]_[A6T]_F4.1_[A9T]_T4.1 (ssRNA) RNA: UUUGAUUAAUAUGAUAUCGUUCUUUCUUGUACUUUUUUCUUUCUCGAUAUCAUAUUAAUCUUU",
    "pKd": 8.01
  },
  {
    "BINDER": "Ie_S2_P5E.1_K5.1_C5.1_H5.1_[+1CCTCT]_A5.1_F5.1_T5.1 (ssRNA) RNA: UUUGAUUAAUAUGAUAUCGUUCUUUCUUCCUCUGUAUUAUUAUUCUUUCUCGAUAUCAUAUUAAUCUUU",
    "pKd": 8.91
  },
  {
    "BINDER": "ACAAACCCUAUAUUAUUACCACAAAC (ssRNA) [Id_ii_S3_P5E.3_K5.2_C5.2_[T-1C]_H5.2_A5.1_F5.1_T5.2_[T11C]_[A12C]]",
    "pKd": 6.35
  },
  {
    "BINDER": "Ib_S4_P5E.1_K5.1_C5.1_H5.1_[T1C]_A5.1_[T6A]_F5.1_T5.1 (ssRNA) RNA: UUUGACAACUGAUCGUUCUUUCUCGUAUAAUUAUUCUUUCUCGAUCAGUUGUCUUU",
    "pKd": 5.98
  },
  {
    "BINDER": "UCUCUUACUAUAUUAUUACCUCUCUU (ssRNA) [Id_ii_S1_P5E.3_K5.2_C5.2_[C-2A]_[T-1C]_H5.2_A5.1_F5.1_T5.2_[T11C]_[A12C]]",
    "pKd": 6.28
  }
]
